Provenance of the data: patent US20230322846A9

# test system: [35S]-TBPS binding, rat brain cortical membranes
# experimental details: Steroid inhibition of [35S]-TBPS binding
# recorded conditions: 3 nM [35S]-TBPS, in the presence of 5 mM GABA
pIC50: −log10 of the molar value.
measured endpoint: pIC50

| compound | pIC50 |
| --- | --- |
| COC[C@@]1(O)CC[C@H]2[C@H](CC[C@@H]3[C@@H]2CC[C@]2(C)[C@@H]([C@@H](C)Cc4cnc(C)cn4)CC[C@@H]32)C1 | > 7.00 |

Give pIC50 for each listed item.
1. COC[C@@]1(O)CC[C@H]2[C@H](CC[C@@H]3[C@@H]2CC[C@]2(C)[C@@H]([C@@H](C)NC(=O)c4cc(C)nn4C)CC[C@@H]32)C1
2. Cc1cc(C[C@@H](C)[C@H]2CC[C@H]3[C@@H]4CC[C@@H]5C[C@](C)(O)CC[C@@H]5[C@H]4CC[C@]23C)sn1
3. CCOC[C@@]1(O)CC[C@H]2[C@H](CC[C@@H]3[C@@H]2CC[C@]2(C)[C@@H]([C@@H](C)NC(=O)c4ccc(C#N)cc4F)CC[C@@H]32)C1
4. CCC[C@@]1(O)CC[C@H]2[C@H](CC[C@@H]3[C@@H]2CC[C@]2(C)[C@@H]([C@@H](C)Cn4nnc(C)n4)C(=O)C[C@@H]32)C1
5. CCOC[C@@]1(O)CC[C@H]2[C@H](CC[C@@H]3[C@@H]2CC[C@]2(C)[C@@H]([C@@H](CC)Nc4cccc(C#N)c4)CC[C@@H]32)C1
6. CCC[C@@]1(O)CC[C@@]2(C)[C@H](CC[C@H]3[C@@H]4CC[C@H](C(C)Cn5cc(C#N)cn5)[C@@]4(C)CC(=O)[C@@H]32)C1 (stereo in doubt) [Example 339]
7. CCC[C@@]1(O)CC[C@@]2(COC)[C@H](CC[C@H]3[C@@H]4CC[C@H]([C@H](C)Cn5nnnc5C)[C@@]4(C)CC[C@@H]32)C1

6.00 to 7.00
6.00 to 7.00
> 7.00
6.00 to 7.00
5.00 to 6.00
> 7.00
> 7.00

Give one value of pIC50 per listed compound.
1. C[C@H](Cn1ccnn1)[C@H]1CC[C@H]2[C@@H]3CC[C@H]4C[C@](C)(O)CC[C@@H]4[C@H]3CC[C@]12C
2. CCOC[C@@]1(O)CC[C@H]2[C@H](CC[C@@H]3[C@@H]2CC[C@]2(C)[C@@H]([C@@H](C)n4ncc(C#N)c4N)CC[C@@H]32)C1

1: 6.00 to 7.00; 2: 5.00 to 6.00
